Hey, just so you know, these numbers are from patent US20230271947A1.

- Assay Explanation: Stability investigation of crystal forms A, B, C, D and the amorphous form of the compound of formula (1) (related substances by HPLC, moisture, XRD, DSC)
- Format: physicochemical
- Condition Parameters: 105° C., opened, 5 days
Observable: Moisture % (%)

• C[C@H]1CCN1c1nc(N2C[C@@H]3[C@@H](CC(=O)O)[C@@H]3C2)c2c(n1)C(F)(F)CC2 [Crystal form B] = 0.28

[P] C[C@H]1CCN1c1nc(N2C[C@@H]3[C@@H](CC(=O)O)[C@@H]3C2)c2c(n1)C(F)(F)CC2 [Crystal form C]
[Q] C[C@H]1CCN1c1nc(N2C[C@@H]3[C@@H](CC(=O)O)[C@@H]3C2)c2c(n1)C(F)(F)CC2 [Crystal form A]
[R] C[C@H]1CCN1c1nc(N2C[C@@H]3[C@@H](CC(=O)O)[C@@H]3C2)c2c(n1)C(F)(F)CC2 [Crystal form D]
Input line: Order each entry by recorded Moisture %, climbing from the minimum. Put the labels in the requested order and write them down.
Output line: R, P, Q
(R: 0.045%, P: 0.24%, Q: 0.54%)

* * *

- Assay Explanation: Stability investigation of crystal forms A, B, C, D and the amorphous form of the compound of formula (1) (related substances by HPLC, moisture, XRD, DSC)
- Format: physicochemical
- Condition Parameters: 0 day
Observable: Total related % (%)

* C[C@H]1CCN1c1nc(N2C[C@@H]3[C@@H](CC(=O)O)[C@@H]3C2)c2c(n1)C(F)(F)CC2 [Crystal form A] | 0.18

[I] C[C@H]1CCN1c1nc(N2C[C@@H]3[C@@H](CC(=O)O)[C@@H]3C2)c2c(n1)C(F)(F)CC2 [Amorphous form]
[II] C[C@H]1CCN1c1nc(N2C[C@@H]3[C@@H](CC(=O)O)[C@@H]3C2)c2c(n1)C(F)(F)CC2 [Crystal form B]
[III] C[C@H]1CCN1c1nc(N2C[C@@H]3[C@@H](CC(=O)O)[C@@H]3C2)c2c(n1)C(F)(F)CC2 [Crystal form D]
[IV] C[C@H]1CCN1c1nc(N2C[C@@H]3[C@@H](CC(=O)O)[C@@H]3C2)c2c(n1)C(F)(F)CC2 [Crystal form C]
Input line: Sort these compounds on Total related % so the largest reading comes first. Put the labels in the requested order and write them down.
Output line: IV, III, I, II

* * *

- Assay Explanation: Stability investigation of crystal forms A, B, C, D and the amorphous form of the compound of formula (1) (related substances by HPLC, moisture, XRD, DSC)
- Format: physicochemical
- Condition Parameters: 40° C., RH 75%, opened, 1 M
Observable: Moisture % (%)

Below: 2 compounds and their reported Moisture %.
- C[C@H]1CCN1c1nc(N2C[C@@H]3[C@@H](CC(=O)O)[C@@H]3C2)c2c(n1)C(F)(F)CC2 [Crystal form B]: 0.35
- C[C@H]1CCN1c1nc(N2C[C@@H]3[C@@H](CC(=O)O)[C@@H]3C2)c2c(n1)C(F)(F)CC2 [Crystal form D]: 0.12

[A] C[C@H]1CCN1c1nc(N2C[C@@H]3[C@@H](CC(=O)O)[C@@H]3C2)c2c(n1)C(F)(F)CC2 [Amorphous form]
[B] C[C@H]1CCN1c1nc(N2C[C@@H]3[C@@H](CC(=O)O)[C@@H]3C2)c2c(n1)C(F)(F)CC2 [Crystal form C]
[C] C[C@H]1CCN1c1nc(N2C[C@@H]3[C@@H](CC(=O)O)[C@@H]3C2)c2c(n1)C(F)(F)CC2 [Crystal form A]
Input line: Order each entry by recorded Moisture %, climbing from the minimum. Put the labels in the requested order and write them down.
Output line: B, C, A
(B: 0.13%, C: 0.46%, A: 1.9%)
